test system: ragweed (common ragweed, Ambrosia elatior); test: Test A preemergence, ragweed; assay type: in vivo; settings: 125 g ai/ha, 0 to 100 scale, 0 is no effect, 100 is complete control
Catalogue of compounds with associated Ragweed plant response rating
quantity: Ragweed plant response rating

* C[C@H](Nc1ncc(C(F)(F)F)c(N)n1)c1cc2c(F)cccc2o1 | 0
* CCC(Nc1ncc(C(F)(F)F)c(N)n1)c1coc2ccccc12 (racemic) | 100
* CC(F)c1nc(N[C@H](C)c2cc3ccccc3o2)nc(N)c1C(F)(F)F (stereo partly drawn) | 30
* CC(COc1cccc(C(F)(F)F)c1)Nc1ncc(C(F)(F)F)c(N)n1 (stereo not drawn) | 20
* C[C@H](Nc1ncc(C(F)(F)F)c(N)n1)c1cc2ccccc2n1C | 0
* C[C@@H](Nc1ncc(C(F)(F)F)c(N)n1)c1cc2c(F)ccc(F)c2s1 | 60
* Cc1nc(NC(C)c2coc3ccccc23)nc(N)c1C(F)(F)F (stereo not drawn) | 60
* Nc1nc(NC(c2cc3ccccc3o2)C2CC2)ncc1C(F)(F)F (stereo not drawn) [Compound 89] | 0
* CC(COc1cc(Cl)cc(Cl)c1)Nc1ncc(C(F)(F)F)c(N)n1 (stereo not drawn) | 0
* C[C@@H](Nc1nc(N)c(C(F)(F)F)c(C(F)(F)F)n1)c1cc2ccccc2s1 | 0
* CC(Nc1ncc(C(F)(F)F)c(N)n1)c1coc2cc(F)ccc12 (racemic) | 100
* C[C@H](Nc1nc(N)c(C(F)(F)F)c(C(F)(F)F)n1)c1cc2ccccc2s1 | 0
* CC[C@@H](Nc1ncc(C(F)(F)F)c(N)n1)c1cc2ccc(F)cc2o1 | 50
* C[C@@H](Nc1ncc(C(F)(F)F)c(N)n1)c1coc2ccccc12 | 100
* C[C@@H](Nc1ncc([S+](C)[O-])c(N)n1)c1cc2ccccc2s1 (stereo partly drawn) | 80
* CC[C@@H](Nc1ncc(C(F)(F)F)c(N)n1)c1coc2ccccc12 | 100
* C[C@@H](Nc1ncc(C(F)(F)F)c(N)n1)c1cc2cccc(F)c2o1 | 100
* CC(Nc1ncc(C(F)(F)F)c(N)n1)c1coc2cccc(F)c12 (racemic) | 50
